# System: Human glucocorticoid receptors (Homo sapiens, UniProt P04150)
# Construct: made in house; host or cells: Sf9 insect cells, recombinant baculovirus (BAC-TO-BAC)
# Sequence (P04150 whole entry): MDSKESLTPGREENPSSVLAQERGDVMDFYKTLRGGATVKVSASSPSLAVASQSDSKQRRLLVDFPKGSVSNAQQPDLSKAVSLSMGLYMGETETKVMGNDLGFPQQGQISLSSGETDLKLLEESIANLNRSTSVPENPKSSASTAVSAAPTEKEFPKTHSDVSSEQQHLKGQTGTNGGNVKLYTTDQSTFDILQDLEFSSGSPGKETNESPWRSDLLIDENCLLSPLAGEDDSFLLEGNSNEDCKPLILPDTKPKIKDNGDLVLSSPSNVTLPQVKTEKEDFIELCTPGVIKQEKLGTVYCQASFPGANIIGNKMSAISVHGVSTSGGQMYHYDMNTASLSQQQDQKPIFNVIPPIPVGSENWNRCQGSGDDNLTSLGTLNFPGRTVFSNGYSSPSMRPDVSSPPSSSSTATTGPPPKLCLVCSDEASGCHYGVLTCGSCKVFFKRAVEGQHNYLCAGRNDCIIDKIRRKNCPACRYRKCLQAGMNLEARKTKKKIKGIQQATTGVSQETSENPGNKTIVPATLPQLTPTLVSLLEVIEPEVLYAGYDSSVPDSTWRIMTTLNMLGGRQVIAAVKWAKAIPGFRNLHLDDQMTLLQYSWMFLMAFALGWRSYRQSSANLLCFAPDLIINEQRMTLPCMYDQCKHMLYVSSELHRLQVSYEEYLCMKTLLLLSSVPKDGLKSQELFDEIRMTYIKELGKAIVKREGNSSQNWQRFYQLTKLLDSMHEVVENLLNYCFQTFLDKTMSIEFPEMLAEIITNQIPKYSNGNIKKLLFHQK
# Method Description: Radioligand filter binding assay, displacement of 3[H]-dexamethasone from hGR
# Assay Context: read-out: GR Binding (% Inhibition at 1.7 μM)
Quantity Measured: inhibition at 1.7 µM (%)
Entry rule: numbers only, all in %.

Prompt line: I'm curious: which inhibition at 1.7 µM was measured for "Cc1c(NS(C)(=O)=O)cccc1N(Cc1ccccc1)Cc1ccc(Oc2ccc(CCC(=O)NCCCCO)cc2)cc1" tested on Human glucocorticoid receptors (Homo sapiens, UniProt P04150)?
Response line: 94.3

Prompt line: // query: "Cc1c(NS(C)(=O)=O)cccc1N(Cc1ccc(Oc2ccc(Cl)c(OCC(=O)O)c2)cc1)Cc1ccc(F)c(F)c1"
Response line: 96.3

Prompt line: // query: "Cc1c(NS(C)(=O)=O)cccc1N(Cc1ccc(Oc2ccc(Cl)c(OCC(=O)NCCCC(=O)O)c2)cc1)Cc1ccc(F)cc1F"
Response line: 95.1

Prompt line: // query: "CCOC(=O)CN(C)C(=O)CCCOc1cccc(Oc2ccc(CN(Cc3ccccc3)c3cccc(NS(C)(=O)=O)c3C)cc2)c1"
Response line: 93.4

Prompt line: // query: "Cc1c(NS(C)(=O)=O)cccc1N(Cc1ccccc1)Cc1ccc(Oc2ccc(OCCCC(=O)NCC(=O)O)cc2)cc1"
Response line: 94.2

Prompt line: // query: "C=Cc1c(NS(C)(=O)=O)cccc1N(Cc1ccccc1)Cc1ccccc1"
Response line: 89.2

Prompt line: // query: "Cc1c(NS(C)(=O)=O)cccc1N(Cc1ccccc1)Cc1ccc(Oc2cccc(OCCCN(C)C)c2)cc1"
Response line: 92

Prompt line: // query: "Cc1c(NS(C)(=O)=O)cccc1N(Cc1ccccc1)Cc1ccc([N+](=O)[O-])cc1"
Response line: 75.9

Prompt line: // query: "Cc1c(NS(C)(=O)=O)cccc1N(Cc1ccccc1)Cc1ccc(Oc2cccc(OC[C@H](O)CO)c2)cc1"
Response line: 89.7

Prompt line: // query: "Cc1c(NS(C)(=O)=O)cccc1N(Cc1ccccc1)Cc1ccc(Oc2ccc(OCCCCC(=O)NCCC(=O)O)cc2)cc1"
Response line: 92.2

Prompt line: // query: "Cc1c(NS(C)(=O)=O)cccc1N(Cc1ccc(Oc2ccc(Br)c(OCC(=O)O)c2)cc1)Cc1ccc(F)cc1F"
Response line: 98.2

Prompt line: // query: "Cc1c(NS(C)(=O)=O)cccc1N(Cc1ccccc1)Cc1ccc(Oc2ccc(OCCCCC(=O)O)cc2)cc1"
Response line: 96.1

Prompt line: // query: "CCCOc1ccc(CN(Cc2ccc(F)cc2F)c2cccc(NS(C)(=O)=O)c2C)cc1"
Response line: 91.1

Prompt line: // query: "Cc1c(NS(C)(=O)=O)cccc1N(Cc1ccccc1)Cc1ccc(Oc2cccc(OCCNS(C)(=O)=O)c2)cc1"
Response line: 96.2

Prompt line: // query: "Cc1c(NS(C)(=O)=O)cccc1N(Cc1ccc(Oc2ccc(Cl)c(O)c2)cc1)Cc1ccc(F)cc1F"
Response line: 98.5

---

# System: progesterone receptor (PR) (Homo sapiens)
# Method Description: Radioligand binding assay for progesterone receptor (similar protocol);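 note: radioligand binding measured with cytosol preparations containing the human progesterone receptor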
Quantity Measured: IC50 (µM)
Entry rule: numbers only, all in µM.

Prompt line: I'm curious: which IC50 was measured for "Cc1c(NS(C)(=O)=O)cccc1N(Cc1ccccc1)Cc1ccc(Oc2ccc(CCC(=O)NCCCCCCO)cc2)cc1" tested on progesterone receptor (PR) (Homo sapiens)?
Response line: 0.255

Prompt line: // query: "Cc1c(NS(C)(=O)=O)cccc1N(Cc1ccccc1)Cc1ccc(Oc2ccc(CCC(=O)NCCN3CCOCC3)cc2)cc1"
Response line: 1.33

Prompt line: // query: "Cc1c(NS(C)(=O)=O)cccc1N(Cc1ccccc1F)Cc1ccc(F)cc1F"
Response line: 0.92

Prompt line: // query: "Cc1c(NS(C)(=O)=O)cccc1N(Cc1ccccc1)Cc1ccc(Oc2ccc(CCCC(=O)NCC(=O)O)cc2)cc1"
Response line: 0.743

Prompt line: // query: "COc1ccc(NS(C)(=O)=O)cc1N(Cc1ccccc1Br)Cc1ccccc1Br"
Response line: 1.2

Prompt line: // query: "COc1ccc(Oc2ccc(CN(Cc3ccc(F)cc3F)c3cccc(NS(C)(=O)=O)c3C)cc2)cc1OC"
Response line: 8.05

---

# System: Human glucocorticoid receptors (Homo sapiens)
# Construct: made in house; host or cells: Sf9 insect cells, recombinant baculovirus (BAC-TO-BAC)
# Method Description: Radioligand filter binding assay, displacement of 3[H]-dexamethasone from hGR
# Assay Context: read-out: GR Binding (% Inhibition at 1.7 μM)
Quantity Measured: inhibition at 1.7 µM (%)
Entry rule: numbers only, all in %.

Prompt line: I'm curious: which inhibition at 1.7 µM was measured for "Cc1c(NS(C)(=O)=O)cccc1N(Cc1ccc(Oc2ccc(Cl)c(OCC(=O)O)c2)cc1)Cc1ccc(Cl)cc1F" tested on Human glucocorticoid receptors (Homo sapiens)?
Response line: 97.5

Prompt line: // query: "Cc1c(NS(C)(=O)=O)cccc1N(Cc1ccccc1)Cc1ccc(Oc2cccc(OCCCC(=O)N(C)CC(=O)O)c2)cc1"
Response line: 93.3

Prompt line: // query: "Cc1c(NS(C)(=O)=O)cccc1N(Cc1ccccc1)Cc1ccc(Oc2ccc(OCCCC(=O)NCCC(=O)O)cc2)cc1"
Response line: 91.9

Prompt line: // query: Cc1c(NS(C)(=O)=O)cccc1N(Cc1ccccc1)Cc1ccc(Oc2cccc(OCCCC(=O)N3CCCCC3C(=O)O)c2)cc1 (stereo not shown)
Response line: 90

---

# System: Human glucocorticoid receptors (Homo sapiens, UniProt P04150)
# Construct: made in house; host or cells: Sf9 insect cells, recombinant baculovirus (BAC-TO-BAC)
# Method Description: Radioligand filter binding assay, displacement of 3[H]-dexamethasone from hGR
# Assay Context: read-out: GR Binding (% Inhibition at 1.7 μM)
Field: inhibition at 1.7 µM. Provide a value for each of the compounds that follow.
Entry rule: numbers only, all in %.

Prompt line: I'm curious: which inhibition at 1.7 µM was measured for CCc1ccc(Oc2ccc(CN(Cc3ccc(F)cc3F)c3cccc(NS(C)(=O)=O)c3C)cc2)cc1OCC(=O)O [Example 236] tested on Human glucocorticoid receptors (Homo sapiens, UniProt P04150)?
Response line: 96.1

Prompt line: // query: Cc1c(NS(C)(=O)=O)cccc1N(Cc1ccccc1)Cc1ccc(Oc2ccc(Br)c(OCC(=O)O)c2)cc1 [Example 77]
Response line: 97.1

Prompt line: // query: Cc1c(NS(C)(=O)=O)cccc1N(Cc1ccc(Oc2ccc(Cl)c(OCC(=O)NCCC(=O)O)c2)cc1)Cc1ccc(F)cc1F [Example 317]
Response line: 96.5

Prompt line: // query: Cc1c(NS(C)(=O)=O)cccc1N(Cc1ccccc1)Cc1ccc(Oc2cccc(OC(CCO)C(=O)O)c2)cc1 (stereo not shown) [Example 113]
Response line: 96.4

Prompt line: // query: Cc1c(NS(C)(=O)=O)cccc1N(Cc1ccc(Oc2cccc(OCCCC(=O)NCCCC(=O)O)c2)cc1)Cc1ccc(F)cc1F [Example 325]
Response line: 97.7

Prompt line: // query: Cc1c(NS(C)(=O)=O)cccc1N(Cc1ccccc1)Cc1ccc(C(=O)c2cccc(OCc3ccccc3)c2)cc1 [Example 247]
Response line: 90.9

Prompt line: // query: Cc1c(NS(C)(=O)=O)cccc1N(Cc1ccccc1)Cc1ccc2c(c1)OCCO2 [Example 16]
Response line: 75.6

---

# System: progesterone receptor (PR) (Homo sapiens, UniProt P06401)
# Sequence (P06401 1-933): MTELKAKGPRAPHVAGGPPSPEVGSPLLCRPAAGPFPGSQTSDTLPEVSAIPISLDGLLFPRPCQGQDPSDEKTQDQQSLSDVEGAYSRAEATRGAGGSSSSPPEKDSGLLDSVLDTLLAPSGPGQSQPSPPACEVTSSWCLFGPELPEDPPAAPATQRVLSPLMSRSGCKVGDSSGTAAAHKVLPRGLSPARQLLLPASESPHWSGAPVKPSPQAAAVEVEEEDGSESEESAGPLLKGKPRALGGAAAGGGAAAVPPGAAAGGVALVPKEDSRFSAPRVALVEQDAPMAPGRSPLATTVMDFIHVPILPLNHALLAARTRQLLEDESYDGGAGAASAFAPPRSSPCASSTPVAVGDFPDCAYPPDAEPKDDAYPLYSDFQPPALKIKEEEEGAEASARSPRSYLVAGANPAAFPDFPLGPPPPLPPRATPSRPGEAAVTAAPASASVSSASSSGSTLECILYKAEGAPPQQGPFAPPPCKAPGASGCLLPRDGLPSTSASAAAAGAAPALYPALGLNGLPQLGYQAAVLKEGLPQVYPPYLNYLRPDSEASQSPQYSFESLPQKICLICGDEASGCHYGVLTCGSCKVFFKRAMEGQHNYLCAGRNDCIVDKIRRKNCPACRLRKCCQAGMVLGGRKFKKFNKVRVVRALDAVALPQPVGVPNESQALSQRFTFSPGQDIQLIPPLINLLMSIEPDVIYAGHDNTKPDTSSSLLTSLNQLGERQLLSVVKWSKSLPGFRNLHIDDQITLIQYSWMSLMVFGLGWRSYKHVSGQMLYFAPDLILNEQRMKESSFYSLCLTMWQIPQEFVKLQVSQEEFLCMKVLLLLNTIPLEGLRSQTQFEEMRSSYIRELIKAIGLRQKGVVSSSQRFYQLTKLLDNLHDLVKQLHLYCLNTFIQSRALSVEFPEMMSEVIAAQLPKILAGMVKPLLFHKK
Quantity Measured: IC50 (nM)
Entry rule: numbers only, all in nM.

Prompt line: What does the data say about its IC50? Entry: Cc1c(NS(C)(=O)=O)cccc1N(Cc1ccccc1)Cc1ccc(Oc2ccc(CCC(=O)NCCCC(=O)O)cc2)cc1 [Example 106]
Response line: 1290

Prompt line: // query: Cc1c(NS(C)(=O)=O)cccc1N(Cc1ccccc1F)Cc1ccc(Cl)cc1F [Example 145]
Response line: 357

Prompt line: // query: Cc1c(NS(C)(=O)=O)cccc1N(Cc1ccc(OCc2ccco2)cc1)Cc1ccc(F)cc1F [Example 155]
Response line: 499

Prompt line: // query: Cc1c(NS(C)(=O)=O)cccc1N(Cc1ccccc1)Cc1ccc(Oc2ccc(CCC(=O)NCC(=O)O)cc2)cc1 [Example 104]
Response line: 583

Prompt line: // query: CSc1ccc(CN(Cc2ccc(Cl)cc2F)c2cccc(NS(C)(=O)=O)c2C)cc1 [Example 144]
Response line: 1300

Prompt line: // query: Cc1c(NS(C)(=O)=O)cccc1N(Cc1ccccc1)Cc1ccc(Oc2cccc(OCCNS(C)(=O)=O)c2)cc1 [Example 81]
Response line: 622

Prompt line: // query: Cc1c(NS(C)(=O)=O)cccc1N(Cc1ccccc1)Cc1ccc(Oc2ccc(CCC(=O)NCCCO)cc2)cc1 [Example 151]
Response line: 551

Prompt line: // query: Cc1c(NS(C)(=O)=O)cccc1N(Cc1ccc(Oc2cccc(OCCCC(=O)NCCCC(=O)O)c2)cc1)Cc1ccc(F)cc1F [Example 325]
Response line: 122

Prompt line: // query: Cc1c(NS(C)(=O)=O)cccc1N(Cc1ccccc1)Cc1ccc(Oc2cccc(OCCNC(=O)CCCC(=O)O)c2)cc1 [Example 79]
Response line: 1100

Prompt line: // query: Cc1c(NS(C)(=O)=O)cccc1N(Cc1ccc(Oc2ccc(CCCC(=O)NCCCN3CCCC3=O)cc2)cc1)Cc1ccc(F)cc1F [Example 75]
Response line: 2350

Prompt line: // query: Cc1c(NS(C)(=O)=O)cccc1N(Cc1ccccc1)Cc1ccc(Oc2ccc(Br)c(OCC(=O)O)c2)cc1 [Example 77]
Response line: 249

Prompt line: // query: Cc1c(NS(C)(=O)=O)cccc1N(Cc1ccccc1)Cc1ccc(Cl)cc1Cl [Example 32]
Response line: 1730

Prompt line: // query: Cc1c(NS(C)(=O)=O)cccc1N(Cc1ccc(F)cc1F)Cc1ccc(F)cc1F [Example 24]
Response line: 2590
